B1: LINE1-full (parent)
chain: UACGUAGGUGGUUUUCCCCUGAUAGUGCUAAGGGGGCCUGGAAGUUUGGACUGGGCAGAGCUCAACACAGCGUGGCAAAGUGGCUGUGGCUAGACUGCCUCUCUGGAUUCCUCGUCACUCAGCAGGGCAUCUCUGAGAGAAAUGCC

- Variants of: B1
- Test: self-cleavage, relative activity (ratio to wild type); higher = more cleavage; in vitro, sequencing; the parent is a self-cleaving ribozyme
Response key: t means self-cleavage >= 0.8; f means self-cleavage < 0.8.

[
  {
    "Mutation id": "U23G U109A",
    "Category": "t"
  },
  {
    "Mutation id": "U45C G88A",
    "Category": "f"
  },
  {
    "Mutation id": "U45A A124G",
    "Category": "f"
  },
  {
    "Mutation id": "A22U U91C",
    "Category": "f"
  },
  {
    "Mutation id": "U39A",
    "Category": "t"
  },
  {
    "Mutation id": "C66U",
    "Category": "f"
  },
  {
    "Mutation id": "C19U A107U",
    "Category": "t"
  },
  {
    "Mutation id": "U15G G126C",
    "Category": "t"
  },
  {
    "Mutation id": "C37A C90U",
    "Category": "f"
  },
  {
    "Mutation id": "G32A G89U",
    "Category": "f"
  },
  {
    "Mutation id": "G74U U91A",
    "Category": "f"
  },
  {
    "Mutation id": "A30U G54U",
    "Category": "t"
  },
  {
    "Mutation id": "U15A A138G",
    "Category": "t"
  },
  {
    "Mutation id": "A6G G74A",
    "Category": "f"
  },
  {
    "Mutation id": "U29C U73A",
    "Category": "t"
  },
  {
    "Mutation id": "G48A U109A",
    "Category": "t"
  },
  {
    "Mutation id": "U62C C103A",
    "Category": "f"
  },
  {
    "Mutation id": "A22G A67C",
    "Category": "f"
  },
  {
    "Mutation id": "U15A A22C",
    "Category": "t"
  },
  {
    "Mutation id": "U5C U87C",
    "Category": "f"
  },
  {
    "Mutation id": "U112C G122U",
    "Category": "t"
  },
  {
    "Mutation id": "U39A A43U",
    "Category": "t"
  }
]
